system: S. mariescens FDOR 8733; assay: MIC, agar dilution (Table IA); assay type: cell-based; details: unit assumed
MEASURED_ATTRIBUTE: Antibacterial activity (MIC) (µg/mL)

MOLECULE: Br.CC(Br)C(=O)Nc1cc(N(C)C)c2c(c1O)C(=O)C1=C(O)C3(O)C(=O)C(C(N)=O)=C(O)C(N(C)C)C3CC1C2 (centres unmarked)
UNIT_ANNOTATION: µg/mL
CENSORING_SIGN: >
ENDPOINT_RESULT: 32

MOLECULE: CN(C)c1cc(NC(=O)CNCC(=O)O)c(O)c2c1CC1CC3C(N(C)C)C(O)=C(C(N)=O)C(=O)C3(O)C(O)=C1C2=O (centres unmarked)
UNIT_ANNOTATION: µg/mL
CENSORING_SIGN: >
ENDPOINT_RESULT: 32

MOLECULE: CN(C)CCCC(=O)Nc1cc(N(C)C)c2c(c1O)C(=O)C1=C(O)[C@]3(O)C(=O)C(C(N)=O)=C(O)[C@@H](N(C)C)C3CC1C2.Cl.Cl (some centres unmarked)
UNIT_ANNOTATION: µg/mL
CENSORING_SIGN: >
ENDPOINT_RESULT: 32

MOLECULE: CN(C)c1cc(NC(=O)CN2CCC2)c(O)c2c1CC1CC3C(N(C)C)C(O)=C(C(N)=O)C(=O)C3(O)C(O)=C1C2=O (centres unmarked)
UNIT_ANNOTATION: µg/mL
CENSORING_SIGN: =
ENDPOINT_RESULT: 2

MOLECULE: CN(C)c1cc(NC(=O)CNC2CC2)c(O)c2c1CC1CC3C(N(C)C)C(O)=C(C(N)=O)C(=O)C3(O)C(O)=C1C2=O.Cl.Cl (centres unmarked)
UNIT_ANNOTATION: µg/mL
CENSORING_SIGN: >
ENDPOINT_RESULT: 32

MOLECULE: CC(C(=O)Nc1cc(N(C)C)c2c(c1O)C(=O)C1=C(O)C3(O)C(=O)C(C(N)=O)=C(O)C(N(C)C)C3CC1C2)N1CCCC1.Cl.Cl (centres unmarked)
UNIT_ANNOTATION: µg/mL
CENSORING_SIGN: =
ENDPOINT_RESULT: 4

MOLECULE: CN(C)CC(=O)Nc1cc(N(C)C)c2c(c1O)C(=O)C1=C(O)[C@]3(O)C(=O)C(C(N)=O)=C(O)[C@@H](N(C)C)C3CC1C2.Cl.Cl (some centres unmarked)
UNIT_ANNOTATION: µg/mL
CENSORING_SIGN: =
ENDPOINT_RESULT: 2

MOLECULE: CCNCC(=O)Nc1cc(N(C)C)c2c(c1O)C(=O)C1=C(O)[C@]3(O)C(=O)C(C(N)=O)=C(O)[C@@H](N(C)C)C3CC1C2.Cl.Cl (some centres unmarked)
UNIT_ANNOTATION: µg/mL
CENSORING_SIGN: =
ENDPOINT_RESULT: 8
